The measured values listed here are drawn from paper PMC9960827.

Recorded pEC50 values for a group of compounds are listed next.
System: L. mexicana SUPKO+TvxNT3
run.description: microbe, parasite or virus in culture
Type: cell-based, Leishmania mexicana
stated.conditions: Leishmania mexicana, read-out: SUPKO+TvxNT3 EC50
pEC50: −log10 of the molar value.
parameter: pEC50

compound	tgt	parameter	result
Nc1ncnc2c1ccn2[C@@H]1O[C@H](CO)[C@@H](O)[C@H]1O	L. mexicana SUPKO+TvxNT3	pEC50	< 4.00
Nc1ncnc2c1ncn2[C@@H]1O[C@H](CO)C[C@H]1O [Cordycepin, 3′-deoxyadenosine]	L. mexicana SUPKO+TvxNT3	pEC50	< 4.00
Cc1ccc(C(=O)Nc2ccc(S(=O)(=O)O)c3cc(S(=O)(=O)O)cc(S(=O)(=O)O)c23)cc1NC(=O)c1cccc(NC(=O)Nc2cccc(C(=O)Nc3cc(C(=O)Nc4ccc(S(=O)(=O)O)c5cc(S(=O)(=O)O)cc(S(=O)(=O)O)c45)ccc3C)c2)c1 [suramin, reference compound]	L. mexicana SUPKO+TvxNT3	pEC50	< 4.00

====

tgt: UniProtKB F9WV62
run.description: cell-based
Format: cell-based
stated.conditions: difference in ΔG0 relative to the parent purine (adenosine or inosine)
Decide by δ(ΔG0): equal to or exceeding -3 kcal/mol means condition met, less means condition not met.

> print(dat)
                                   molecule     assigned.class
1               Nc1ncnc2[nH]cnc12 [Adenine]      condition met
2  Nc1ncnc2c1ccn2[C@@H]1O[C@H](CO)[C@@H](O)[C@H]1O [Tubercidin, 7-deazaadenosine]  condition not met
3  Nc1ncnc2c1ncn2[C@@H]1O[C@H](CO)C[C@H]1O [Cordycepin, 3′-deoxyadenosine]      condition met
4  O=c1ccn([C@@H]2O[C@H](CO)[C@@H](O)[C@H]2O)c(=O)[nH]1 [Uridine]  condition not met
5  OC[C@H]1O[C@@H](n2cnc3cncnc32)[C@H](O)[C@@H]1O [Nebularine]      condition met
6  Nc1nc2c(ncn2[C@@H]2O[C@H](CO)[C@@H](O)[C@H]2O)c(=O)[nH]1 [Guanosine]      condition met
7  Cc1cn([C@H]2C[C@H](O)[C@@H](CO)O2)c(=O)[nH]c1=O [Thymidine]  condition not met

====

Tested on: human embryonic kidney (HEK) cells
run.description: Resazurin toxicity assay on human embryonic kidney cells
Assay type: cell-based
stated.conditions: resazurin, 96 well plates; read-out: HEK EC50
pEC50: −log10 of the molar value.
Recorded pEC50 values for a group of molecules are listed next.
parameter: pEC50

> print(dat)
                                   molecule  parameter  result
1  Nc1ncnc2c1c(Br)cn2[C@H]1C[C@H](O)[C@@H](CO)O1      pEC50  < 3.70
2  Nc1ncnc2c1ccn2[C@H]1C[C@H](O)[C@@H](CO)O1      pEC50  < 3.70
3  Nc1ncnc2c1ccn2C1OC(CO)CC1O (stereo not drawn)      pEC50  < 3.70

====

Recorded ΔG0 values for a group of compounds are listed next.
tgt: TvxNT3 (Trypanosoma vivax)
Sequence (F9WV62 entry or part of it): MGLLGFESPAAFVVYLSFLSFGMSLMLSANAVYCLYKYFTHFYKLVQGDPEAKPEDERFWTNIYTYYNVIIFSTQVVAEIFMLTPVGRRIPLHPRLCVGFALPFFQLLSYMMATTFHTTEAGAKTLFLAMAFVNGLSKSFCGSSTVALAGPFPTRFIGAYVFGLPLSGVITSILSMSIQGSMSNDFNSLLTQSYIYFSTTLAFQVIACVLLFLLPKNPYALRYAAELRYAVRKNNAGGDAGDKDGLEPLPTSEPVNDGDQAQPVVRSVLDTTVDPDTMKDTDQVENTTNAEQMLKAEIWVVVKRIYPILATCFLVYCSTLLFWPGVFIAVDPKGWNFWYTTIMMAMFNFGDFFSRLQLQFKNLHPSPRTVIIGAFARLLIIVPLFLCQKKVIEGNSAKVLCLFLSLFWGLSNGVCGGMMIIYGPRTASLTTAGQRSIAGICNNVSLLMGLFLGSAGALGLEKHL
run.description: cell-based
Type: cell-based
stated.conditions: Gibbs free energy of interaction, from Km or Ki
parameter: ΔG0 (kcal/mol)

> print(dat)
                                   compound  unit.of.measure  readout.number
1  Nc1ncnc2c1ncn2[C@H]1C[C@H](O)[C@@H](CO)O1 [2′-deoxyadenosine]         kcal/mol           -8.15
2  OC[C@H]1O[C@@H](n2cnc3c(O)nccc32)[C@H](O)[C@@H]1O [3-deazainosine]         kcal/mol           -6.12
3  COc1ncnc2c1ccn2[C@@H]1O[C@H](CO)[C@@H](O)[C@H]1O [CL4510, 6-methoxy-7-deazapurine riboside]         kcal/mol           -6.55
4  Nc1ncnc2c1c(Br)cn2[C@@H]1O[C@H](CO)C[C@H]1O [FH7429_u, 7-bromo-7-deaza-3′-deoxyadenosine]         kcal/mol           -5.14

====

Recorded T. congolense 6C3 RF values for a group of compounds are listed next.
Tested on: T. congolense 6C3
run.description: microbe, parasite or virus in culture
Assay type: cell-based, Trypanosoma congolense
stated.conditions: resistance factor = EC50 (test strain)/EC50(control strain)
parameter: T. congolense 6C3 RF

> print(dat)
                                   compound  readout.number
1  Nc1ncnc2c1ncn2[C@@H]1O[C@H](CO)C[C@H]1O [Cordycepin, 3′-deoxyadenosine]            0.88
2  Nc1ncnc2c1c(-c1ccccn1)cn2[C@@H]1O[C@H](CO)[C@@H](O)[C@H]1O            0.33
3  N=C(N)c1ccc(OCCCCCOc2ccc(C(=N)N)cc2)cc1 [Pentamidine, reference compound]            0.79

====

tgt: TcoAT1
Format: cell-based, Trypanosoma congolense
stated.conditions: 0.05 µM [3H]-adenosine, 10 s; IC50 converted to Ki; read-out: Ki on the transport of [3H]-adenosine
pKi: −log10 of the molar value.
Decide by pKi: equal to or exceeding 3 means met, less means not met.

> print(dat)
                                   molecule  assigned.class
1  Nc1ccn([C@@H]2O[C@H](CO)[C@@H](O)[C@H]2O)c(=O)n1 [Cytidine]         not met
2  OC[C@@H]1CC[C@H](n2cnc3c(O)ncnc32)O1 [2′,3′-dideoxyinosine]             met
3  C=Cc1cn([C@@H]2O[C@H](CO)C[C@H]2O)c2ncnc(N)c12 [FH10659]             met
4  Nc1nccc2c1ncn2[C@@H]1O[C@H](CO)[C@@H](O)[C@H]1O [3-deazaadenosine]             met
